molecular target: muscarinic M2 receptor (Cavia porcellus, UniProt H0VRN8); construct: left atria were excised to prepare tissue specimens; from tissue; host or cells: isolated guinea pig left atrium (male Hartley); test: Muscarinic M2 antagonistic action in isolated guinea pig left atrium (carbachol-induced relaxation, Schild method); assay type: cell-based; conditions: pA2 Left atrium M2, isolated guinea pig left atrium, compound applied 30 minutes before carbachol
Quantity measured: Kb (nM)

>>> print(df.to_string())
                                   molecule   val
0  CC1=[N+](C)CCN1[C@@H]1CC[C@H](C(C(N)=O)(c2ccccc2)c2ccccc2)C1  25.1
1  CC(C)[N+]1(C)[C@@H]2CC[C@H]1C[C@@H](OC(=O)C(CO)c1ccccc1)C2 (stereo partly shown) [Ipratropium, reference compound]  3.98
2  CCOCC[n+]1ccn([C@H]2CC[C@@H](C(C(N)=O)(c3ccccc3)c3ccccc3)C2)c1C (relative stereo)  25.1
3  C[n+]1ccn([C@H]2CC[C@H](C(C(N)=O)(c3ccccc3)c3ccccc3)C2)c1 (relative stereo)    20
4  CN1[C@@H]2CC[C@H]1C[C@@H](OC(=O)C(CO)c1ccccc1)C2 (stereo partly shown) [Atropine, reference compound]  2.51
5  COCC[n+]1ccn([C@H]2CC[C@H](C(C(N)=O)(c3ccccc3)c3ccccc3)C2)c1C (relative stereo)  79.4
6  COCC[n+]1ccn([C@@H]2CC[C@H](C(C(N)=O)(c3ccccc3)c3ccccc3)C2)c1C  7.94

* * *

Biological target: muscarinic M2 receptor (Cavia porcellus, UniProt H0VRN8)
Construct: left atria were excised to prepare tissue specimens; from tissue; host or cells: isolated guinea pig left atrium (male Hartley)
Sequence (H0VRN8 1-466): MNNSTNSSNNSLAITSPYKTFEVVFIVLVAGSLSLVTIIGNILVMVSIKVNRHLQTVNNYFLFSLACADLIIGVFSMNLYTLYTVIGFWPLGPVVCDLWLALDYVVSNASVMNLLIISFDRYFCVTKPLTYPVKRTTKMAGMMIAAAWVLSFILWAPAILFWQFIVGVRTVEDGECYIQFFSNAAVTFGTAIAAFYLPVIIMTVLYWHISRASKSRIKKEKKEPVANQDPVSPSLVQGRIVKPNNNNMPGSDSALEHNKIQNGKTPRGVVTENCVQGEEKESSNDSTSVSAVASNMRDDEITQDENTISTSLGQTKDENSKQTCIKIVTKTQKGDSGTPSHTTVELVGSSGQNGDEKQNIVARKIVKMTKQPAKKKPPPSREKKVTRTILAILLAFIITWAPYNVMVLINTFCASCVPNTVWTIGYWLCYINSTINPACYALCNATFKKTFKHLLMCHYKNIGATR
Assay: Muscarinic M2 antagonistic action in isolated guinea pig left atrium (carbachol-induced relaxation, Schild method)
Assay type: cell-based
Settings: pA2 Left atrium M2, isolated guinea pig left atrium, compound applied 30 minutes before carbachol
# Kb per entry
Quantity measured: Kb (µM)

>>> print(df.to_string())
                                   compound      val
0  Cc1n([C@@H]2CC[C@H](C(C(N)=O)(c3ccccc3)c3ccccc3)C2)cc[n+]1Cc1ccccc1  0.00398
1  CC(=O)C[n+]1ccn([C@H]2CC[C@H](C(C#N)(c3ccccc3)c3ccccc3)C2)c1C (relative stereo)    0.251
2  Cc1n([C@H]2CC[C@@H](C(C(N)=O)(c3ccccc3)c3ccccc3)C2)cc[n+]1CC1CCC1 (relative stereo)  0.00794
3  C[n+]1ccn([C@H]2CC[C@@H](C(C(N)=O)(c3ccccc3)c3ccccc3)C2)c1 (relative stereo)   0.0316
4  Cc1n([C@H]2CC[C@@H](C(C(N)=O)(c3ccccc3)c3ccccc3)C2)cc[n+]1CCC(C)C   0.0631
5  CC1=[N+](C)CCN1[C@H]1CC[C@@H](C(C(N)=O)(c2ccccc2)c2ccccc2)C1 (relative stereo) [Example 56]   0.0316
6  COCC[n+]1ccn([C@H]2CC[C@@H](C(C(N)=O)(c3ccccc3)c3ccccc3)C2)c1C (relative stereo)   0.0126

* * *

biological target: muscarinic M3 receptor (Cavia porcellus, UniProt H0W1Z3); construct: trachea was excised, and cut at every two tracheal cartilages to prepare tissue specimens; from tissue; host or cells: isolated guinea pig trachea (male Hartley); assay: Muscarinic M3 antagonistic action in isolated guinea pig trachea (carbachol-induced contraction, Schild method); format: cell-based; conditions: pA2 Trachea M3, isolated guinea pig trachea, compound applied 15 minutes before carbachol
Sequence (H0W1Z3 1-590): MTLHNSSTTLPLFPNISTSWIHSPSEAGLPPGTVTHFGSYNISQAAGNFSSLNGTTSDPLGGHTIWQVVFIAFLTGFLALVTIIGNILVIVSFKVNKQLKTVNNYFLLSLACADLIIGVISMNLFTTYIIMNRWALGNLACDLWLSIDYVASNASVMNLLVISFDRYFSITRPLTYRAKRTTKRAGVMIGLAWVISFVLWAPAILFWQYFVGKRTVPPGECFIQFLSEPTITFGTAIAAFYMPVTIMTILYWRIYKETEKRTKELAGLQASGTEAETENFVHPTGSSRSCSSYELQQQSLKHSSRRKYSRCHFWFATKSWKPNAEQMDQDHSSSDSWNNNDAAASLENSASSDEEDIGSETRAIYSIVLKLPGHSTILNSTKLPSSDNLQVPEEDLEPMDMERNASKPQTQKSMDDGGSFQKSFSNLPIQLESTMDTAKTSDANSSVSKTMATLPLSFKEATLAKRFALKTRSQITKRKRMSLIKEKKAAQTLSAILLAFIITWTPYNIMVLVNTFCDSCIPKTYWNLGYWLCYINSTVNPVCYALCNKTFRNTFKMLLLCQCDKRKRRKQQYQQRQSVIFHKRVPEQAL
Quantity measured: Kb (nM)

>>> print(df.to_string())
                                    compound  quantity_measured    val
 0  Cc1n([C@H]2CC[C@@H](C(C(N)=O)(c3ccccc3)c3ccccc3)C2)cc[n+]1C(F)F (relative stereo) [Example 37]                 Kb  0.794
 1  Cc1n([C@H]2CC[C@H](C(C#N)(c3ccccc3)c3ccccc3)C2)cc[n+]1Cc1ccccc1 (relative stereo)                 Kb      1
 2  Cc1n([C@H]2CC[C@@H](C(C(N)=O)(c3ccccc3)c3ccccc3)C2)cc[n+]1Cc1ccc(F)cc1                 Kb  0.794
 3  COCC[n+]1cn([C@H]2CC[C@@H](C(C(N)=O)(c3ccccc3)c3ccccc3)C2)cn1 (relative stereo)                 Kb  0.794
 4  Cc1cccc(C[n+]2ccn([C@H]3CC[C@@H](C(C(N)=O)(c4ccccc4)c4ccccc4)C3)c2C)c1 (relative stereo)                 Kb  0.316
 5  CC(C)[N+]1(C)[C@@H]2CC[C@H]1C[C@@H](OC(=O)C(CO)c1ccccc1)C2 (stereo partly shown) [Ipratropium, reference compound]                 Kb      1
 6  Cc1n([C@H]2CC[C@H](C(C(N)=O)(c3ccccc3)c3ccccc3)C2)cc[n+]1Cc1ccccc1 (single isomer, unassigned) [Example 97]                 Kb    0.1
 7  Cc1n([C@H]2CC[C@H](C(C(N)=O)(c3ccccc3)c3ccccc3)C2)cc[n+]1C (relative stereo)                 Kb   1.26
 8  CC1=[N+](C)CCN1[C@H]1CC[C@@H](C(C(N)=O)(c2ccccc2)c2ccccc2)C1 (relative stereo) [Example 56]                 Kb   2.51
 9  Cc1n([C@H]2CC[C@@H](C(C(N)=O)(c3ccccc3)c3ccccc3)C2)cc[n+]1CC1CCC1 (relative stereo)                 Kb  0.398
10  Cc1n([C@H]2CC[C@H](C(C(N)=O)(c3ccccc3)c3ccccc3)C2)cc[n+]1CCC(C)C (relative stereo)                 Kb  0.631
11  Cc1n([C@H]2CC[C@@H](C(C(N)=O)(c3ccccc3)c3ccccc3)C2)cc[n+]1CCC(C)C                 Kb  0.631
12  CC(=O)OCC[n+]1ccn([C@H]2CC[C@@H](C(C(N)=O)(c3ccccc3)c3ccccc3)C2)c1C (relative stereo)                 Kb      1
13  CC(=O)C[n+]1ccn([C@H]2CC[C@H](C(C#N)(c3ccccc3)c3ccccc3)C2)c1C (relative stereo)                 Kb      1
14  CC(=O)OCCC[n+]1ccn([C@H]2CC[C@H](C(C(N)=O)(c3ccccc3)c3ccccc3)C2)c1C (relative stereo)                 Kb  0.501
15  NC(=O)C(c1ccccc1)(c1ccccc1)[C@@H]1CC[C@H](n2c[n+](Cc3ccccc3)cn2)C1 (relative stereo)                 Kb  0.794
16  COCC[n+]1ccn([C@@H]2CC[C@H](C(C(N)=O)(c3ccccc3)c3ccccc3)C2)c1C                 Kb  0.316
17  COCC[n+]1ccn([C@H]2CC[C@H](C(C(N)=O)(c3ccccc3)c3ccccc3)C2)c1C (relative stereo)                 Kb   1.26
18  COCC[n+]1ccn([C@H]2CC[C@@H](C(C(N)=O)(c3ccccc3)c3ccccc3)C2)c1C (relative stereo)                 Kb    0.2

* * *

# Kb per entry
biological target: muscarinic M2 receptor (Cavia porcellus, UniProt H0VRN8); construct: left atria were excised to prepare tissue specimens; from tissue; host or cells: isolated guinea pig left atrium (male Hartley); experiment: Muscarinic M2 antagonistic action in isolated guinea pig left atrium (carbachol-induced relaxation, Schild method); format: cell-based; conditions: pA2 Left atrium M2, isolated guinea pig left atrium, compound applied 30 minutes before carbachol
Quantity measured: Kb (nM)

In [3]: df
Out[3]:
                                   compound                             target_entity  result_unit   val
0  CC(=O)OCC[n+]1ccn([C@H]2CC[C@@H](C(C(N)=O)(c3ccccc3)c3ccccc3)C2)c1C (relative stereo)  muscarinic M2 receptor (Cavia porcellus, UniProt H0VRN8)           nM  31.6
1  Cc1n([C@H]2CC[C@H](C(C(N)=O)(c3ccccc3)c3ccccc3)C2)cc[n+]1Cc1ccccc1 (single isomer, unassigned) [Example 98]  muscarinic M2 receptor (Cavia porcellus, UniProt H0VRN8)           nM  15.8
2  CC(=O)C[n+]1ccn([C@H]2CC[C@H](C(C(N)=O)(c3ccccc3)c3ccccc3)C2)c1C (relative stereo)  muscarinic M2 receptor (Cavia porcellus, UniProt H0VRN8)           nM  1260
3  CC1=[N+](C)CCN1[C@H]1CC[C@@H](C(C(N)=O)(c2ccccc2)c2ccccc2)C1 [Example 58]  muscarinic M2 receptor (Cavia porcellus, UniProt H0VRN8)           nM  79.4
4  Cc1n([C@H]2CC[C@H](C(C(N)=O)(c3ccccc3)c3ccccc3)C2)cc[n+]1C (relative stereo)  muscarinic M2 receptor (Cavia porcellus, UniProt H0VRN8)           nM  39.8
5  Cc1n([C@H]2CC[C@H](C(C(N)=O)(c3ccccc3)c3ccccc3)C2)cc[n+]1CCC(C)C (relative stereo)  muscarinic M2 receptor (Cavia porcellus, UniProt H0VRN8)           nM  6.31

// data source = patent US20100152261A1
